Where do the numbers come from? From paper PMC5540273.

system: MLK3; conditions: concentration: 1 μM, replicates: in singlicate; n = 1;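 note: KINOMEscan kinase panel screen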
propertyMeasured: %Inh (%)
Answer with a number only, understood to be in %.

// solved cases for %Inh follow
Fc1ccc(-c2ncn(CCCN3CCOCC3)c2-c2cccnc2)cc1	17
Cc1cn2c(=O)cc(N3CCOCC3)nc2n1Cc1cccc(Cl)c1Cl	38
Cc1nnc(-c2ccc(C)c(-c3ccc(C(=O)Nc4ccc(NS(C)(=O)=O)cc4)cc3)c2)o1	7
COc1ccc(Nc2ncc(C#N)c(Nc3ccccc3C(N)=O)n2)cc1N1CCN(C)CC1.Cl	100

Consider the compound "CNc1ncnc2[nH]ncc12" . State its measured %Inh.
2

Consider the compound "Cl.Nc1ncnc2occ(-c3ccc(NC(=O)Nc4cc(C(F)(F)F)ccc4F)cc3)c12" and give its recorded %Inh.
65

State, in one line, measured %Inh of "Cl.Cl.Cl.Fc1ccc(-c2ncn(C3CCNCC3)c2-c2ccnc(Nc3ccccc3)n2)cc1"
0

Could you please provide reported %Inh for "CC(=O)Nc1ccc(COc2ccc(Nc3ccnc4cc(-c5ccccn5)ccc34)cc2)cc1.Cl" ? Thanks!
0

###

Some compounds, each annotated with its measured %Inh.
tested on: NEK5; details: concentration: 1 μM, replicates: in singlicate; n = 1
Expressed in %, but write only the number.

Below, 6 compounds whose answers are already recorded.
NS(=O)(=O)c1cccc(-c2ccc3nccc(-c4cccc(S(N)(=O)=O)c4)c3c2)c1	7
Cc1nnc(-c2ccc(C)c(-c3ccc(C(=O)Nc4ccc(NS(C)(=O)=O)cc4)cc3)c2)o1	8
Fc1ccc(-c2nn3c(OCC(F)(F)F)cccc3c2-c2ccncc2)cc1	2
Cn1ccc2ncnc(Oc3ccc(NC(=O)Nc4ccncc4)c(Cl)c3)c21	3
c1ccc(-c2cc(-c3c[nH]nc3-c3ccccn3)ccn2)cc1	0
Cl.Oc1cccc(Nc2ccnc3cc(-c4ccncc4)ccc23)c1	0

Assign %Inh to the following record: "O=c1cc(N2CCOCC2)nc2n(Cc3cccc(Cl)c3Cl)c(C3CC3)nn12"
0

Fill in %Inh for record "NS(=O)(=O)CCc1cccc(Nc2nccc(-c3c(-c4cccc(NC(=O)c5c(F)cccc5F)c4)nn4ccccc34)n2)c1"
8

State, in one line, measured %Inh of "O=C1NC(=O)C(N2CCc3ccccc32)=C1c1cccc(Cl)c1"
0

###

test system: WNK4; conditions: concentration: 1 μM, replicates: in singlicate; n = 1
Catalogue of %Inh readings, one per entry.

Specify %Inh for "COc1cc2c(cc1OC[C@@H](O)CO)ncc1c3ccc(C#N)cc3[nH]c21" and stop.
0%

Give %Inh for NS(=O)(=O)c1cccc(-c2ccc3nccc(-c4cccc(S(N)(=O)=O)c4)c3c2)c1 [GW867253]
0%

For O=C1NC(=O)C(N2CCc3ccccc32)=C1c1cccc(Cl)c1 [SB-408010] , write its %Inh.
89%

Let me know recorded %Inh for COc1cc2ncn(-c3cc(OCc4sccc4Cl)c(C(N)=O)s3)c2cc1OC [GSK448459] , thanks.
31%

###

test system: MEK3; construct: gene MAP2K3; conditions: concentration: 1 μM, replicates: in singlicate; n = 1
propertyMeasured: %Inh (%)
Reply numerically in %, unit not repeated.

CC(C)(C)n1cnc2c(N)ncnc21	39
Cn1cc(-c2ccc3c(c2)CCN3C(=O)Cc2ccccc2Cl)c2c(N)ncnc21	3
O=C(NCCNc1ccnc(Nc2ccc(F)cc2)n1)Nc1ccccc1F	0
CCCCCc1nc2c(N)ncnc2n1CCCCC	34

State its %Inh for this compound: "COc1ccc(Nc2ncc(C#N)c(Nc3ccccc3C(N)=O)n2)cc1N1CCN(C)CC1.Cl"
89

In one line, give reported %Inh of the entry "c1ccc(-c2cc(-c3c[nH]nc3-c3ccccn3)ccn2)cc1" .
0

Name the recorded %Inh of the compound listed here: "O=C1NC(=O)C(N2CCc3ccccc32)=C1c1cccc(Cl)c1"
0

Could you please provide reported %Inh for "CC(=O)Nc1ccc(COc2ccc(Nc3ccnc4cc(-c5ccccn5)ccc34)cc2)cc1.Cl" ? Thanks!
0

In one line, give reported %Inh of the entry NCC(NC(=O)c1cc(-c2cn[nH]c2)c(-c2ccnc3[nH]ccc23)s1)c1ccccc1.O=C(O)C(F)(F)F.O=C(O)C(F)(F)F (stereo not shown) .
82
